SUBJECT_OF_TEST: ERα receptor (Rattus norvegicus)
Sequence (P06211 whole entry): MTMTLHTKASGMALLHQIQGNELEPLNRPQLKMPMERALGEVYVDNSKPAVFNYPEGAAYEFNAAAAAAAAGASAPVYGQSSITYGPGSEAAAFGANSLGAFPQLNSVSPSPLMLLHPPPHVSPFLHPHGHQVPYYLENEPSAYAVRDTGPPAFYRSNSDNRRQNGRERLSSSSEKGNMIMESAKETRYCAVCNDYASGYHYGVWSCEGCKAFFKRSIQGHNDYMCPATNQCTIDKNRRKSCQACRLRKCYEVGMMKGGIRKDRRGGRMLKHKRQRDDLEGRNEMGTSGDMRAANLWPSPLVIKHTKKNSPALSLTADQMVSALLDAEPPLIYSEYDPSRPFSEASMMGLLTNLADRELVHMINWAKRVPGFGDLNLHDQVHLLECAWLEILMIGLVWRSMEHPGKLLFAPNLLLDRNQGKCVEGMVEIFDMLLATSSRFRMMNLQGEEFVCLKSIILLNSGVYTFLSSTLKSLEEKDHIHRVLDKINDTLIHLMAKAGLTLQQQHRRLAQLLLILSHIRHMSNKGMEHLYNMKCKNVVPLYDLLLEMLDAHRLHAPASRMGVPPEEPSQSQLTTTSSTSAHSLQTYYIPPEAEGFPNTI
PARAMETER: Kd (nM)
Write the value in nM as a bare number.

Q: What measured Kd is associated with C[C@]12CC[C@@H]3c4ccc(O)cc4CC[C@H]3[C@@H]1C[C@@H]([125I])[C@@H]2O [[^125I]-16α-iodo-3,17β-E2, [^125I]-16-α-iodo-3,17-βestradiol] on ERα receptor (Rattus norvegicus)?
Ans: 0.124
